// provenance: ChEMBL document CHEMBL1152505

species: Rattus norvegicus; assay: Anticonvulsant activity against maximal electroshock-induced seizures in rat assessed as time to peak effect; type: functional
observable: Time (h)
The response must be a number in h with no trailing unit.

compound: COc1cccc(NC2=CC(=O)CC(C)C2)c1 (configuration not stated)
Time / h: 0.5

compound: CC1CC(=O)C=C(Nc2ccc(C(F)(F)F)cc2)C1 (configuration not stated)
Time / h: 1

compound: CC1CC(=O)C=C(Nc2ccc(I)cc2)C1 (configuration not stated)
Time / h: 2

compound: CC1CC(=O)C=C(Nc2ccc(Br)cc2)C1 (configuration not stated)
Time / h: 0.5

compound: CC1CC(=O)C=C(Nc2ccc(Cl)cc2)C1 (configuration not stated)
Time / h: 1

Look up Time: CC1CC(=O)C=C(Nc2ccc(OC(F)(F)F)cc2)C1 (configuration not stated)
0.5

Look up Time: CC1CC(=O)C=C(Nc2ccc([N+](=O)[O-])cc2)C1 (configuration not stated)
4
